target-of-assay: UniProt O00487
Sequence (O00487 whole entry, the tested form may be a part): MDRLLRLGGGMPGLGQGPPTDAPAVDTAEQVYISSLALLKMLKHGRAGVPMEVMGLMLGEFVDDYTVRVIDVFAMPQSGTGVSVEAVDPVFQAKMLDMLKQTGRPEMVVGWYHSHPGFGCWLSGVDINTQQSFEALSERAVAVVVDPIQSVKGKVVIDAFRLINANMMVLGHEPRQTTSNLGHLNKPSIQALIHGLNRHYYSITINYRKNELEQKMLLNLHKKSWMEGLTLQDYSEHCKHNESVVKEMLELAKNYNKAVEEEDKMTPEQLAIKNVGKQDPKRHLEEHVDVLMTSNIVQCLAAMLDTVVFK
protocol-notes: log2 ratio of Biotin-Ahx-Ub-VS probe labelling (fragment/DMSO); higher = less target engagement (more negative = stronger competition), active = hit call of the paper (q ≤ 0.05, log2 ratio ≤ -1)
experimental-setup: compound concentration: 200 uM; treatment time: 3 h
measure-name: log2 ratio of Biotin-Ahx-Ub-VS probe labelling

compound: CC1Cc2ccccc2N1C(=O)CCl (stereo unspecified)
reading: -0.194
//
compound: Cc1ccccc1CN(C)C(=O)CCl
reading: -0.14
//
compound: O=C(CCl)N(C1=CCCCC1)C1CC1
reading: -0.232
//
compound: O=C(CCl)N1CCc2ccccc2C(O)C1 (stereo unspecified)
reading: -0.0272
//
compound: O=C(CCl)N1CCOC2(CCC2)C1
reading: -0.0639
//
compound: Cl.O=C(CCl)NCCN1CCc2ccccc21
reading: -0.255

====

target-of-assay: VCPIP1 (UniProt Q96JH7)
Sequence (Q96JH7 whole entry, the tested form may be a part): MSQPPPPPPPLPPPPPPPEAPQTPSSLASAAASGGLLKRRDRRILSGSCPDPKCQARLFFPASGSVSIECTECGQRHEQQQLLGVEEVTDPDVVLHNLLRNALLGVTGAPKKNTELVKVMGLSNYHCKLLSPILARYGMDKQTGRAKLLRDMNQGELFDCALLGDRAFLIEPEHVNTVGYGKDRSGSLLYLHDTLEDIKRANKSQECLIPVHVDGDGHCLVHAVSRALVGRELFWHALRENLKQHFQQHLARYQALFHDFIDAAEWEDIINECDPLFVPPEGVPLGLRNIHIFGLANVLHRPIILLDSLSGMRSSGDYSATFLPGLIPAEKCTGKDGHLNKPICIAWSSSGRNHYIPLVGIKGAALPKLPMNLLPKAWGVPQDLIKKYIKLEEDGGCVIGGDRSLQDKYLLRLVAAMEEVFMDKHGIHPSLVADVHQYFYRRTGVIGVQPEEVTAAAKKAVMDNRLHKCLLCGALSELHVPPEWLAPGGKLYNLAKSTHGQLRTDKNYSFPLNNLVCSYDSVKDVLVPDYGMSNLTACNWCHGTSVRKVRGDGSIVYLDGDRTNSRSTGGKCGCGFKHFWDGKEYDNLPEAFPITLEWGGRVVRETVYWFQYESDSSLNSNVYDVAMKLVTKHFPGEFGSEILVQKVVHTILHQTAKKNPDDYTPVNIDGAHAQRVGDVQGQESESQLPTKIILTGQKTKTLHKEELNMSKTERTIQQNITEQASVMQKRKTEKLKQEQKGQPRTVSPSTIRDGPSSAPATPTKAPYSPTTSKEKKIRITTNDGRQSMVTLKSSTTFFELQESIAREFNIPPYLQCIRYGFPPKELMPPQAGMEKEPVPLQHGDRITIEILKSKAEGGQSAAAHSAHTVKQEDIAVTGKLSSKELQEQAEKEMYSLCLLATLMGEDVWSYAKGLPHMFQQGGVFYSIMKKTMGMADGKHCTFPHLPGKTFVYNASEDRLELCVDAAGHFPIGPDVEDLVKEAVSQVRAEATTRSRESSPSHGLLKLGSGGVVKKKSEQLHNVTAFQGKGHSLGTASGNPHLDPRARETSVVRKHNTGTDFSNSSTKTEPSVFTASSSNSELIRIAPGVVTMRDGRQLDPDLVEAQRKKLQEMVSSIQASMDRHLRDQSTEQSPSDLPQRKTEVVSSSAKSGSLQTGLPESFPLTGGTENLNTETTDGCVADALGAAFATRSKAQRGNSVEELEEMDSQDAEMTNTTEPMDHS
protocol-notes: log2 ratio of Biotin-Ahx-Ub-VS probe labelling (fragment/DMSO); higher = less target engagement (more negative = stronger competition), active = hit call of the paper (q ≤ 0.05, log2 ratio ≤ -1)
experimental-setup: compound concentration: 200 uM; treatment time: 3 h
Please enter Y where log2 ratio of Biotin-Ahx-Ub-VS probe labelling is greater than or equal to -2, and N where it is lower.

compound: COc1ccc(Cl)cc1NC(=O)CCl
target-of-assay: VCPIP1 (UniProt Q96JH7)
category-label: Y
//
compound: Cc1cccc(N2CCC(NC(=O)CCl)C2=O)c1 (centres undefined)
target-of-assay: VCPIP1 (UniProt Q96JH7)
category-label: Y
//
compound: O=C(CCl)Nc1cc(Cl)ccc1C(=O)O
target-of-assay: VCPIP1 (UniProt Q96JH7)
category-label: Y
//
compound: O=C(CCl)Nc1cc(Cl)ccc1-n1cncn1
target-of-assay: VCPIP1 (UniProt Q96JH7)
category-label: Y
//
compound: Cc1cccc(N(CCC#N)C(=O)CCl)c1C
target-of-assay: VCPIP1 (UniProt Q96JH7)
category-label: N
//
compound: O=C(CCl)N1CCOCC1C1CC1 (centres undefined)
target-of-assay: VCPIP1 (UniProt Q96JH7)
category-label: Y
//
compound: C/C(=C\CNC(=O)CCl)c1cnn(C)c1.Cl
target-of-assay: VCPIP1 (UniProt Q96JH7)
category-label: Y
//
compound: Cl.O=C(CCl)NCCc1ncc(F)cc1F
target-of-assay: VCPIP1 (UniProt Q96JH7)
category-label: Y
//
compound: CC(NC(=O)CCl)c1ccc2[nH]ncc2c1 (centres undefined)
target-of-assay: VCPIP1 (UniProt Q96JH7)
category-label: N

====

target-of-assay: UniProt Q9UGI0
Sequence (Q9UGI0 whole entry, the tested form may be a part): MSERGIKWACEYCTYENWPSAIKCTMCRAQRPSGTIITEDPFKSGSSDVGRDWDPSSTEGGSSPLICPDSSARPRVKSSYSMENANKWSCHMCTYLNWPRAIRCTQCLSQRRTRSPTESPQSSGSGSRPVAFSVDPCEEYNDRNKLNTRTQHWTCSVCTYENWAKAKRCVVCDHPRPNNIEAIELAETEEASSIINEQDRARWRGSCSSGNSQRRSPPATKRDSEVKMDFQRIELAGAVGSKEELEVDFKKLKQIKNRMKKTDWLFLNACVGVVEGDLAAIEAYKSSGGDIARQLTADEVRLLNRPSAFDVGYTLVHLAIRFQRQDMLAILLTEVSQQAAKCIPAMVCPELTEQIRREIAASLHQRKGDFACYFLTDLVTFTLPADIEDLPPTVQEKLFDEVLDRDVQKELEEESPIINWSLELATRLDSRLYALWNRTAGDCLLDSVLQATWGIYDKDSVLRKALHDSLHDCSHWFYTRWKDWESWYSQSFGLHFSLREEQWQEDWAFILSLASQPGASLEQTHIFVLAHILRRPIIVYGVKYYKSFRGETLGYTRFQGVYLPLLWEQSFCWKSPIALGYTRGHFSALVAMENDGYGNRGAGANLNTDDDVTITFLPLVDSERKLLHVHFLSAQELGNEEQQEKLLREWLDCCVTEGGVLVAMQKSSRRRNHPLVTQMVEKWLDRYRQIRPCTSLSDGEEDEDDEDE
protocol-notes: log2 ratio of Biotin-Ahx-Ub-VS probe labelling (fragment/DMSO); higher = less target engagement (more negative = stronger competition), active = hit call of the paper (q ≤ 0.05, log2 ratio ≤ -1)
experimental-setup: compound concentration: 200 uM; treatment time: 3 h
Classes used: active, inactive

molecule: Cc1ccc(N(C(=O)CCl)C2C=CS(=O)(=O)C2)cc1 (centres undefined)
category-label: inactive

molecule: Cl.Cn1nc2c(c1CNC(=O)CCl)CCCC2
category-label: inactive

molecule: CC1CCc2onc(CNC(=O)CCl)c2C1 (centres undefined)
category-label: inactive

molecule: O=C(CCl)Nc1ccc(F)cc1Cl
category-label: active

molecule: O=C(CCl)N1CCCN(C(=O)c2ccc(Cl)cc2)CC1
category-label: inactive

molecule: Cl.O=C(CCl)NCc1ccnc(Oc2ccccc2F)c1
category-label: inactive

molecule: CC(=O)Nc1ccc(NC(=O)CCl)cc1
category-label: active

molecule: Cc1ccc(N2CCC(NC(=O)CCl)C2=O)cc1 (centres undefined)
category-label: inactive

molecule: O=C(CCl)N1CCC(=C(F)CO)C1
category-label: inactive

molecule: COc1ccc(CN(C)C(=O)CCl)cc1
category-label: inactive

molecule: Cc1cccc(N2CCC(NC(=O)CCl)C2=O)c1 (centres undefined)
category-label: inactive

molecule: O=C(CCl)Nc1cccc(C(=O)N2CCSCC2)c1
category-label: inactive

molecule: Cc1ccccc1CN(C)C(=O)CCl
category-label: active

molecule: CN(C(=O)CCl)c1nc2ccccc2s1
category-label: active

molecule: O=C(CCl)N1CCC(C(O)c2ccc(F)cc2)CC1 (centres undefined)
category-label: inactive

molecule: CC(NC(=O)CCl)c1noc(Cc2ccccc2)n1 (centres undefined)
category-label: inactive

molecule: O=C(CCl)N1CCc2nc[nH]c2C1c1ccc(Cl)cc1 (centres undefined)
category-label: active

molecule: O=C(CCl)NCc1cccc(F)c1
category-label: inactive

molecule: Cl.O=C(CCl)N1CCC(n2nc3ccccc3n2)CC1
category-label: inactive

molecule: COc1ccc(-c2csc(NC(=O)CCl)n2)cc1
category-label: active

molecule: O=C(CCl)NC1CCOc2ccccc21 (centres undefined)
category-label: inactive

molecule: C[C@@H](NC(=O)CCl)c1cccc(C#N)c1
category-label: inactive

molecule: Cc1cc(C2CCCN2C(=O)CCl)nn1C.Cl (centres undefined)
category-label: inactive

molecule: CN(C)S(=O)(=O)c1ccccc1CNC(=O)CCl
category-label: inactive

molecule: O=C(CCl)NCc1ccc(N2CCOCC2)nc1
category-label: inactive

molecule: O=C(CCl)N1CCc2ccccc2C(O)C1 (centres undefined)
category-label: active

molecule: CN(CCc1ncc(Br)cn1)C(=O)CCl.Cl
category-label: inactive

molecule: CS(=O)(=O)N1CCCN(C(=O)CCl)CC1
category-label: inactive

molecule: N#Cc1ccc(Cl)cc1NC(=O)CCl
category-label: inactive
